Biological target: cathepsin E (Rattus norvegicus)
Construct: The enzyme CatE was prepared from rat spleen according to the method previously described; from tissue; host or cells: rat spleen
Sequence (P16228 59-398): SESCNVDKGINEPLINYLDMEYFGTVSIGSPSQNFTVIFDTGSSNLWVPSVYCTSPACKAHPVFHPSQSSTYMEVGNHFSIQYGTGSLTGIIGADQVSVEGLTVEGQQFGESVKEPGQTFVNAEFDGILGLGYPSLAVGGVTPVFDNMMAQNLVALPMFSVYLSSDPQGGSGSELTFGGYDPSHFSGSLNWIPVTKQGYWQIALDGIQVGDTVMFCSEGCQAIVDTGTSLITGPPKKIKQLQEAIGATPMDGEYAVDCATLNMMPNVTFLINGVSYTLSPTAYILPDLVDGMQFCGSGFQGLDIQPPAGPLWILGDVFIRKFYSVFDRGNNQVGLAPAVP
Experiment: SPR (Biacore 2000) measurement of KD
Conditions: CatE immobilized on CM5 chip, running buffer 50 mM Tris-HCl, 100 mM NaCl, pH 7.4, four peptide concentrations, 1:1 binding with mass transfer model, unit M printed in b35 only, read-out: KD (dissociation constant)
Procedure: A fluorogenic substrate susceptible at neutral pH to the protease cathepsin E, which usually functions at acidic pH, was designed as per reference: [Nma-Gly-Gly-Arg-Arg-Ser-Gly-Thy-Cys-Gly(Dnp)-D-Arg-NH2]. […] An SPR instrument, Biacore 2000 (GE Healthcare, UK), was used for measuring KD for the binding of cathepsin E and selected peptides. […] The binding data were analyzed with the 1 : 1 binding with mass transfer model in the BIAevaluation software version 4 : 1 (Biacore).
Ends that are not written are not given here.
experimental-endpoint: Kd (nM)

[ask] Could you tell me which Kd is on file for IGCEERSFPNIIIIIG [S3] ?
[reply] 389

[ask] // next record IEGRVGCDFMYVG [P3]
[reply] 334
